Measurement context: 313.15 K; 3000 kPa; Liquid; Vibrating tube method
Item-by-item account of mass density
Number only, in kg/m3; omit the unit.

CCCCCCCC(=O)OC [methyl octanoate] | 861.28
CCCC(=O)OC [methyl butanoate] | 878.42
CCCCCC(=O)OC [methyl hexanoate] | 867.5

Query: mass density; subject: CCCCCCCCC(=O)OC [methyl nonanoate]
859.33

Entry to check: CCCCCCC(=O)OC [methyl heptanoate]
863.9

And for CCCCC(=O)OC [methyl pentanoate] ?
871.87

====

Measurement context: 323.15 K; 50000 kPa; Liquid; Vibrating tube method
Readout label: mass density (kg/m3)
// return numeric value only (unit: kg/m3, not printed)

CCCCCCCCC(=O)OC [methyl nonanoate] | 883.08

Bench note: what mass density did CCCC(=O)OC [methyl butanoate] show?
908.62

And CCCCCCCC(=O)OC [methyl octanoate] ?
885.93

Each recorded value in this set is attributed to the NIST ThermoML archive (doi:10.1016/j.fluid.2018.04.024).
